Taken from ChEMBL document CHEMBL1121796.

system: L1210; assay: The compound is tested for its antitumor activity against murine leukemia L1210 cells in vitro, expressed as ID50; type: functional; details: Mus musculus, read-out: ID50 (the source's name)
reported_endpoint: IC50 (nM)
One number for each entry, in nM.

Prompt: Look up IC50: COc1ccc2[nH]c3c(C)c4ccncc4c(C)c3c2c1
Completion: 600
